Sourced from the supplement of paper PMC9112550

- System: Escherichia coli TOP10;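 also: peptides expressed intracellularly from a pBAD plasmid library in pooled LB shake-flask culture, induced with 0.3% L-arabinose, DNA abundance read by NGS, three biological replicates, DESeq2 with apeglm shrinkage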
- PROTOCOL_SUMMARY: shrunken log2 fold change of peptide-encoding DNA abundance (4.5 h post-induction vs induction); higher = less antimicrobial activity (less host growth inhibition)
- CONDITIONS_USED: time post-induction: 4.5 h; library: site-saturation at positions 5, 18, 19, 20
I'd appreciate it if you could label each record using shrunken log2 fold change and these ranges: low group: < -0.04; middle group: ≥ -0.04 and < 0.2; high group: ≥ 0.2

Check out these entries, answers already filled in.
1) RRIRFRPPRLPRPRPRPHSFPRP = middle group
2) RRIRSRPPRLPRPRPRPTFRPRP = low group
3) RRIRERPPRLPRPRPRPTFFPRP = high group
4) RRIRMRPPRLPRPRPRPKPTPRP = high group

Req: Into which category would you place RRIRHRPPRLPRPRPRPATEPRP ?
Resp: high group

Req: Into which category would you place RRIRSRPPRLPRPRPRPLDTPRP ?
Resp: low group

Req: Into which category would you place RRIRGRPPRLPRPRPRPYYWPRP ?
Resp: low group

Req: Into which category would you place RRIRNRPPRLPRPRPRPPCFPRP ?
Resp: middle group

Req: Into which category would you place RRIRKRPPRLPRPRPRPDDEPRP ?
Resp: middle group

Req: Into which category would you place RRIRDRPPRLPRPRPRPFIIPRP ?
Resp: low group

Req: Into which category would you place RRIRMRPPRLPRPRPRPVGHPRP ?
Resp: middle group

Req: Into which category would you place RRIRRRPPRLPRPRPRPCFLPRP ?
Resp: low group

Req: Into which category would you place RRIRGRPPRLPRPRPRPMNLPRP ?
Resp: middle group
